Just for reference, PubChem BioAssay (NCI) is where these values come from.

System: SK-MEL-5 melanoma
protocol_summary: NCI tumour cell line growth inhibition, 48 h
measured_endpoint: TGI

1. O=C(O)CN1CCN2CCOCCN(CC1)CCN(CC(=O)O)CC2 : > 100 µM
2. COC(=O)[C@@H](C)C[C@H](Cc1ccccc1)NC(=O)c1nc([C@@H](C[C@H](C(C)C)N(C)C(=O)[C@@H](NC(=O)[C@H]2CC(=O)CCN2C)C(C)C)OC(C)=O)sc1C(C)C : 1.76 µM
3. CCOC(=O)/C(C#N)=c1/s/c(=C(\O)N/N=C/c2ccc(OC)cc2)c(=N)n1-c1ccccc1 : > 100 µM
4. COc1ccc(Cc2nc3cc(C(F)(F)F)ccc3n2C[C@@H]2CCCN3CCCCC23)cc1 (stereo partly specified) : 20.3 µM
5. CC/C(=C\c1ccc(N(C)C)cc1)c1ccncc1 : 16.4 µM
6. O=C(NNC(=O)c1cc2ccccc2[nH]1)c1cc2ccccc2[nH]1 : > 100 µM
7. CCOc1ccc(-c2nc3ccc(-c4nc5ccc(N6CCN(C)CC6)cc5[nH]4)cc3[nH]2)cc1OCC : 3.71 µM
8. COc1cnc2c(c1)C(=O)c1c-2n(CCCN2CCNCC2)c(=O)c2cc(F)ccc12 : 1.65 µM
9. COC(=O)N1C=Cc2c(c(C)c3c([nH]c4ccccc43)c2C)C1C (stereo unspecified) : 31.1 µM
10. NC(C(=O)O)C(O)c1cnc[nH]1 (stereo unspecified) : > 100 µM
11. COc1cc(/C=C(\C#N)C(=O)c2ccccc2)cc(OC)c1OC : > 100 µM
12. CCOc1ccc(/C=C/C(=O)c2sc(NNC(C)=O)nc2C)cc1 : > 100 µM
13. CC(C)CCNC(=O)c1ccc(CNC(=O)/C=C/c2ccc3c(c2)-c2ccccc2C3)cc1 : > 100 µM
14. C(#C[C@@]12CCC[C@@H]1NCO2)c1ccc2c(c1)OCO2 : > 100 µM
15. CC(=O)C1=C(C)N2C(=NC3=C(CCc4ccccc43)C2c2ccc(Cl)cc2)S1 (stereo unspecified) : > 100 µM
16. O=c1c2cc(F)ccc2sc2c(NCCCNCCO)nc3ccc(F)cc3c12 : 3.15 µM
17. COC(=O)c1nc2n(n1)-c1ccccc1C(=O)N(Cc1ccccc1)C2 : > 100 µM
18. Nc1nc(-c2ccccn2)c(-c2ccc3ncccc3n2)s1 : > 25 µM
19. c1c[nH]c(CN2CCN(Cc3ncc[nH]3)CC2)n1 : > 100 µM
20. O=c1oc2cc(O)ccc2c(O)c1C(c1ccc(/C=C/c2ccccc2)cc1)c1c(O)c2ccc(O)cc2oc1=O : 95 µM
21. O=C(O)OC12CCCCCC1C(=O)C1CCCCC12 (stereo unspecified) : > 100 µM

* * *

Measured TGI, listed per entry for reference.
Test system: OVCAR-4 ovarian
protocol_summary: NCI tumour cell line growth inhibition, 48 h
measured_endpoint: TGI

1) COc1cc(/C=C(\C#N)C(=O)c2ccccc2)cc(OC)c1OC : > 100 µM
2) COC(=O)C(Cc1ccc2c(c1)OCO2)(NC(=O)c1ccccc1)P(=O)(OC)OC (stereo unspecified) : > 100 µM
3) CC12CCC(C(=Nc3ccc([N+](=O)[O-])cc3)C1=O)C2(C)C (stereo unspecified) : 69.8 µM
4) CCOP(=O)(OCC)/C(F)=C/c1ccc(F)cc1 : > 100 µM
5) O=c1[nH]c2ccccc2c(=O)c2cc3ccccc3cc12 : > 100 µM
6) O=C1N(c2ccccc2)C2(O)C(=O)c3ccccc3C2(O)N1c1ccccc1 (stereo unspecified) : > 100 µM
7) N#CC(C#N)=CNC(=S)Nc1ccc(S(=O)(=O)Nc2nccs2)cc1 : > 100 µM
8) C[C@H]1CC(=O)C[C@@H]2CC[C@@H]3[C@H](CC[C@]4(C)C(OC(=O)c5cccc6c(=O)c7ccccc7[nH]c56)CC[C@@H]34)[C@]21C (stereo partly specified) : > 100 µM
9) O=C(NNC(=O)c1cc2ccccc2[nH]1)c1cc2ccccc2[nH]1 : > 100 µM
10) CC[C@H]1CNC(=O)CC1CC(=O)OC (stereo partly specified) : > 100 µM
11) CC(=O)Nc1ccc(/C=C/C(=O)c2sc(-n3nc(-c4ccccc4)cc3-c3ccccc3)nc2C)cc1 : > 100 µM
12) O=C(O)c1ccc2nc(-c3ccccn3)c(-c3ccccn3)nc2c1 : > 100 µM
13) COc1ccc(Cc2c3cc(OC)c(OC)cc3cc[n+]2C)cc1 : > 40.5 µM
14) NCCCc1nonc1C(=O)O : > 100 µM
15) CNC(=S)N/N=C/CSC/C=N/NC(=S)NC : > 100 µM
16) Cc1ccccc1C1N=C2Oc3ccccc3C=C2C(=O)N1 (stereo unspecified) : > 100 µM
17) C=CN(C(=O)N1CCN(c2cc3c(cc2F)c(=O)c(C(=O)O)cn3C2CC2)CC1)c1nc(-c2ccc(C)cc2)cs1 : > 100 µM
18) N/C(=N\O)c1cn(C2OC(CO)C(O)C2O)c2ncnc(N)c12 (stereo unspecified) : 4.05 µM
19) N#CN1CCC2CC(=O)CCC2C1 (stereo unspecified) : > 100 µM
20) CC(=O)Nc1ccc(S(=O)(=O)N2C(=O)CCC2C(=O)Nc2ccccc2)cc1 (stereo unspecified) : 10.8 µM
21) NS(=O)(=O)c1ccc(NNc2c3ccccc3nc3c(C(=O)Nc4ccc(S(N)(=O)=O)cc4)cccc23)cc1 : 75.1 µM
22) CC[C@@]12CC(C(=O)OC)=C3Nc4ccccc4[C@@]34CCN(C[C@H]3O[C@H]31)[C@@H]24 : > 100 µM
23) Nc1nc(-c2ccccn2)c(-c2ccc3ncccc3n2)s1 : > 25 µM
24) COc1cc(OC)cc(Oc2nc3ccc(C(F)(F)F)cc3nc2-c2ccccc2)c1 : > 100 µM
25) CC(=O)OC1=C(c2ccccc2)S(=O)(=O)c2ccccc21 : > 100 µM
26) C[C@@H](NC(=O)Nc1cccc(C(=O)Nc2cc(C(C)(C)C)ccc2C(=O)O)n1)c1ccccc1 : > 100 µM
27) Cc1n[nH]c(C)c1-c1c(C)n[nH]c1C : 6.38 µM
28) O=C(NC(=Nc1ccccc1)SCCSC(=Nc1ccccc1)NC(=O)c1ccccc1)c1ccccc1 : > 100 µM
29) OC1(c2ccccc2)c2ccccc2N(c2ccccc2)c2ccc(Cl)cc21 (stereo unspecified) : 1.39 µM
30) COc1cc(F)c(F)c(F)c1C(=O)c1cnc(NC2CCN(S(C)(=O)=O)CC2)nc1N : > 25 µM
31) CC1=C(C(N)=O)C(c2ccncc2)C(C#N)C(=O)N1 (stereo unspecified) : > 100 µM
32) O=c1[nH]nc(Nc2ccc(Cl)cc2)c2nnn(-c3ccc([N+](=O)[O-])cc3)c12 : > 100 µM
33) CCc1c(N=[N+]=[N-])c2ccccc2oc1=O : > 100 µM
34) NC(C(=O)O)C(O)c1cnc[nH]1 (stereo unspecified) : > 100 µM
35) CCCCCCCCCCCCCCCCCCCCCCC(=O)N[C@H]1CCc2cc(OC)c(OC)c(OC)c2-c2ccc(SC)c(=O)cc21 : > 100 µM
36) COC(=O)[C@]1(CCC(C)=O)C(=O)C=CN([C@H](C)c2ccccc2)[C@@H]1Cc1ccc(OC)c(OCc2ccccc2)c1I : > 100 µM
37) O=c1ccn([C@@H]2C[C@H](CO)CS(=O)C2)c(=O)[nH]1 (stereo partly specified) : > 100 µM
38) CCOC(=O)n1c(=O)nc2c3c(ncn21)Oc1c(c(-c2ccccc2)nn1-c1ccccc1)C3c1ccc(Cl)cc1 (stereo unspecified) : 2.47 µM
39) COC(=O)[C@@H](N1C(=O)c2ccccc2C1=O)C1(C)CC(Cl)=NO1 (stereo partly specified) : > 100 µM
40) CCn1c(O)c(C(=O)Nc2cccs2)c(=O)n(CC)c1=S : 70.9 µM
41) COc1cc(C(=O)N[C@@H]2CCCN(C)C2)ccc1Nc1ncc2c(n1)N(C1CCCC1)CC(C)(C)C(=O)N2C : 23.4 µM

* * *

Test system: SN12C renal
protocol_summary: NCI tumour cell line growth inhibition, 48 h
measured_endpoint: TGI (µM)

1) O[C@@H]1CCCCN1Cc1cc2cc3c(cc2c2cc(OCc4ccccc4)ccc12)OCO3 : 2.77
2) CN1CN(c2ccccc2)C2(CCN(CCCN(C)c3ccc(F)cc3)CC2)C1=O : 66.4

* * *

Tested on: EKVX NSCLC
protocol_summary: NCI tumour cell line growth inhibition, 48 h
measured_endpoint: TGI

1. CCOC(=O)c1cn2c(n1)sc1cc([N+](=O)[O-])ccc12 : > 100 µM
2. NS(=O)(=O)c1ccc(NNc2c3ccccc3nc3c(C(=O)Nc4ccc(S(N)(=O)=O)cc4)cccc23)cc1 : > 100 µM
3. CC(=O)NNc1nc(C)c(C(=O)NNC(=O)C(=O)Nc2ccc(C)cc2[N+](=O)[O-])s1 : > 100 µM
4. COc1ccc(Cc2c3cc(OC)c(OC)cc3cc[n+]2C)cc1 : > 59 µM
5. C=C(CN1CCc2ccccc2C1)c1ccc(C(=O)Nc2cccc(N)c2)cc1 : 56.2 µM
6. CS(=O)(=O)Sc1ccc(Cl)cc1 : 18.3 µM
7. CC(C)CCNC(=O)c1ccc(CNC(=O)/C=C/c2ccc3c(c2)-c2ccccc2C3)cc1 : > 100 µM
8. CC(C)=CCN1c2ccccc2[C@@]2(CC=C(C)C)CCN(C)[C@@H]12 : 64.3 µM
